// reported MIC for each item listed
Tested on: Escherichia coli
Test: Antimicrobial activity against Escherichia coli 10-3 after 18-24 hrs by two-fold serial dilution method
Type: functional

compound	MIC
COc1ccc(CO/N=C2\CN(c3nc4c(cc3F)c(=O)c(C(=O)O)cn4C3CC3)CC2CN)cc1OC.CS(=O)(=O)O (racemic)	16 µg/mL
C[C@H]1COc2c(N3CCN(C)CC3)c(F)cc3c(=O)c(C(=O)O)cn1c23.C[C@H]1COc2c(N3CCN(C)CC3)c(F)cc3c(=O)c(C(=O)O)cn1c23.O	4 µg/mL
COc1cc(CO/N=C2\CN(c3nc4c(cc3F)c(=O)c(C(=O)O)cn4C3CC3)CC2CN)c([N+](=O)[O-])cc1OC.CS(=O)(=O)O (racemic)	32 µg/mL
COc1cc(CO/N=C2\CN(c3nc4c(cc3F)c(=O)c(C(=O)O)cn4C3CC3)CC2CN)ccc1OCc1ccccc1.CS(=O)(=O)O (racemic)	> 128 µg/mL

Hey, just so you know, these numbers are from ChEMBL document CHEMBL2062435.
